- Tested on: Staphylococcus aureus JCM2151
- test-name: Test for antimicrobial activity (turbidity): growth inhibiting concentration of antibiotics
- Format: cell-based
- run-conditions: Staphylococcus aureus, JCM2151, antimicrobial peptide (Seq. ID No. 27) 16 μg/ml
Reported MIC values follow for various compounds

Look over these answered cases.
compound="CC[C@H]1OC(=O)[C@H](C)[C@@H](O[C@H]2C[C@@](C)(OC)[C@@H](O)[C@H](C)O2)[C@H](C)[C@@H](O[C@@H]2O[C@H](C)C[C@H](N(C)C)[C@H]2O)[C@](C)(O)C[C@@H](C)C(=O)[C@H](C)[C@@H](O)[C@]1(C)O [erythromycin]" assay_value="1 µg/mL"
compound="[H]/N=C(/N)N[C@H]1[C@H](O)[C@@H](O)[C@H](O[C@@H]2O[C@@H](C)[C@](O)(C=O)[C@H]2O[C@@H]2O[C@@H](CO)[C@H](O)[C@@H](O)[C@@H]2NC)[C@@H](N/C(N)=N\\[H])[C@@H]1O [streptomycin]" assay_value="> 1 µg/mL"
compound="NC[C@H]1O[C@H](O[C@H]2[C@H](O)[C@@H](O[C@H]3O[C@H](CO)[C@@H](O)[C@H](N)[C@H]3O)[C@H](N)C[C@@H]2N)[C@H](O)[C@@H](O)[C@@H]1O [kanamycin]" assay_value="> 1 µg/mL"

Please look at the following compound next.
Query :: What MIC appears in the records for this compound with Staphylococcus aureus JCM2151? COc1cccc(OC)c1C(=O)N[C@@H]1C(=O)N2[C@@H]1SC(C)(C)[C@@H]2C(=O)O [staphcillin]
Result :: > 1 µg/mL
